src = patent US20110202000A1

targetOrTestSystem: T1, Abeta42 beta amyloid peptide (UniProt P05067 672-713)
T1 construct: domain: Abeta42; also called Aβ42; beta amyloid (Covance)
T1 sequence (P05067 672-713 limits assumed): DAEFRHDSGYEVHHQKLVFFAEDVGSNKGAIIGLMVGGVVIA
assayText: competition ELISA on coated beta amyloid, purified antibody, n=2; competitor biotinylated chimeric mouse 6E10
observable: Fold Difference (IC50 normalized to the reference) (fold)
Field: numeric (fold). Do not append units.

Some solved cases for reference:
- binder: "chimeric 6E10 antibody (mouse 6E10 V regions, human IgG1/kappa constant regions) (antibody, V domains shown, also called chimeric mouse 6E10 antibody; chimeric antibody) VH: EVQLQQSGAELVKPGASVKLSCTASGFNIKDTYIHWVKQRPEQGLEWIGRFDPVNVNTRYDSRFRGKATITSDASSNTAYLHLNSLTSEDTAVYYCSRSYYNGRRRFTYWGQGTLVTVSA VL: DIVMTQSPSSLTVTAGEKVALTCKASQSLLSSGNQKNYLTWYQQKPGQPPKLLIYWASIRESGVPDRFTGSGSGTFFTLTISSVQAEDLAVYYCQNDYNYPFTFGSGTKLEIK"
  resultUnit: "fold"
  number: 1
- binder: "MDT-2007 (composite human antibody sequence variant VH4/VK2) (antibody, V domains shown, Human IgG1/kappa (pANT15/pANT13)) VH: QVQLVQSGAEVKKPGASVKVSCTASGFNIKDTYIHWVRQARGQRLEWIGRFDPVNVNTRYDSRFRGRVTITSDASTNTAYMELSSLRSEDTAVYYCSRSYYNGRRRFTYWGQGTLVTVSS VL: DIVMTQSPSSLTASVGDRVTITCKASQSLLSSGNQKNYLTWYQQKPGQPPKLLIYWASIRESGVPDRFTGSGSGTFFTLTISSLQAEDVAVYYCQNDYNYPFTFGQGTKLEIK"
  resultUnit: "fold"
  number: 0.57
- binder: "composite human antibody variant VH5/VK1 (antibody, human IgG1, V domains shown, Human IgG1/kappa (pANT15/pANT13)) VH: QVQLVQSGAEVKKPGASVKVSCTASGFNIKDTYIHWVRQARGQRLEWIGRFDPVNVNTRYDSRFRGRVTITSDASTSTAYMELSSLRSEDTAVYYCSRSYYNGRRRFTYWGQGTLVTVSS VL: DIVMTQSPDSLTVSLGERATINCKASQSLLSSGNQKNYLTWYQQKPGQPPKLLIYWASIRESGVPDRFTGSGSGTFFTLTISSLQAEDVAVYYCQNDYNYPFTFGQGTKLEIK"
  resultUnit: "fold"
  number: 0.91
- binder: "composite human antibody variant VH4/VK1 (antibody, human IgG1, V domains shown, Human IgG1/kappa (pANT15/pANT13)) VH: QVQLVQSGAEVKKPGASVKVSCTASGFNIKDTYIHWVRQARGQRLEWIGRFDPVNVNTRYDSRFRGRVTITSDASTNTAYMELSSLRSEDTAVYYCSRSYYNGRRRFTYWGQGTLVTVSS VL: DIVMTQSPDSLTVSLGERATINCKASQSLLSSGNQKNYLTWYQQKPGQPPKLLIYWASIRESGVPDRFTGSGSGTFFTLTISSLQAEDVAVYYCQNDYNYPFTFGQGTKLEIK"
  resultUnit: "fold"
  number: 1.14

Now consider a different binder.
Looking up composite human antibody variant VH5/VK2 (antibody, human IgG1, V domains shown, Human IgG1/kappa (pANT15/pANT13)) VH: QVQLVQSGAEVKKPGASVKVSCTASGFNIKDTYIHWVRQARGQRLEWIGRFDPVNVNTRYDSRFRGRVTITSDASTSTAYMELSSLRSEDTAVYYCSRSYYNGRRRFTYWGQGTLVTVSS VL: DIVMTQSPSSLTASVGDRVTITCKASQSLLSSGNQKNYLTWYQQKPGQPPKLLIYWASIRESGVPDRFTGSGSGTFFTLTISSLQAEDVAVYYCQNDYNYPFTFGQGTKLEIK , I found its Fold Difference (IC50 normalized to the reference) recorded as 0.72
